These entries and their values trace back to patent US20250243263A1.

Form field: Kd (one value per entry).
biological target: T1, iPHF (UniProt P10636-8 2-441, limits assumed); assay: BLI (Octet), antibody on biosensor tip, iPHF in solution
T1 construct: also called iPHF tau
T1 sequence (P10636 other isoform, or with tags, fused parts or gaps limits assumed): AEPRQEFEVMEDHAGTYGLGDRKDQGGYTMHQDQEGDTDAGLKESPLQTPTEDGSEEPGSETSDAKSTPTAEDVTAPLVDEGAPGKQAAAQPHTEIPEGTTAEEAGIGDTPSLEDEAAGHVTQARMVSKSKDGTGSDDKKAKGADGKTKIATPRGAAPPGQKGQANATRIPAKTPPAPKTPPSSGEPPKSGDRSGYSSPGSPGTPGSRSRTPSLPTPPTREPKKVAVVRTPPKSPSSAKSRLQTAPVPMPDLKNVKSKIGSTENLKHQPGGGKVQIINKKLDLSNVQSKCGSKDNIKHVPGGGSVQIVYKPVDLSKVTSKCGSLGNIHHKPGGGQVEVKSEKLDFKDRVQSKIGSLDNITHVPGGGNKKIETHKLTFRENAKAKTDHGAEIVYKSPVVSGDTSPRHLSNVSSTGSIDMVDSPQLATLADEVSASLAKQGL
Report as a plain number; the unit nM is understood.

Example results:
VY011 (antibody, V domains shown, also called VY0I1; VY0111 (misprints in the text)) VH: QVQLQESGPGLVKPSETLSLTCTVSGGSISNYYWTWIRQPAGKGLEWIGRVYTSGSANYNPSLKSRVTMSVDTSKNQFSLTLSSVTAADTAVYYCARDRGLYYWGQGTLVTVSS VL: DIVMTQTPLSSLVTLGQPASISCRSSQSLVHSDGNTYLSWLQQRPGQPPRLLIYKISKRFFGVPDRFSGSGAGTDFTLKINRVEAEDVGIYYCMQATQFPLTFGGGTKVEIK = 2
VY017 (antibody, V domains shown) VH: EVQLVESGGGLVQPGGSLRLSCAASGFTFSSYSMNWVRQAPGKGLEWVSYIRSSSSTIYYADSVKGRFTISRDNAKKSLYLQMNSLRDEDTAVYYCARRSIADYWGQGTLVTVSS VL: EIVLTQSPATLSSSPGERATLSCRASQSVTSYLNWYQQKPGQAPRLLIYDASNRATGIPARFSGSGSGTDFTLTISSLEPEDFALYYCQQRSNWPYTFGQGTKLEIK = 3.7
VY013 (antibody, V domains shown) VH: QVTLKESGPVLVKPTETLTLTCTVSGFSLINARMAVSWIRQPPGKALEWLAHIFSNDEKSYSTSLKSRLTISKDTSKSQVVLIMTNMDPVDTATYYCARIRGYSYNYGMDVWGQGTTVTVSS VL: DIVMTQSPLSLPVIPGEPASISCRSSQSLLHSNGYIYLDWYLQKPGQSPQLLIYVGSNRASGVPDRFSGSGSGTDFKLKISRVEAEDVGVYYCMQTLQIPRTFGGGTKVEIK = 2.9
VY014 (antibody, V domains shown) VH: EVQLVESGGGLVQPGGSLRLSCAASGFTFNNYDMHWVRQAAGKGLEWVSTIGAAGDTYYPGSVKGRFIISRENAKNSLYLQMNSLRAGDTAVYYCARAGETLEGATIGYYYGMDVWGQGTTVTVSS VL: DILMTQSPLSLPVTPGEPASISCRSSQSLLHSNGYNYLDWYLQKPGQSPQLLIYLGSNRASGVPDRFSGSGSGTDFTLKFSRVEAEDVGLYYCMQALQIPLTFGGGTKVEIK = 5.3
VY005 (antibody, V domains shown) VH: EVQLVESGGGLVQPGGSLRLSCAASGFTFSSYSMNWVRQAPGKGLEWISYISSSNSTIKYADSVKGRFTISRDNAKNSLYLQMNSLRDEDTAVYYCARRSLGDYWGQGTLVIVSS VL: DIQLTQSPSFLSASVGDRVTITCRASQGISCSLAWYQQKPGKAPKLLIYAASTLQSGVPSRFSGSGSGTEFTLTISSLQPEDFATYYCQQFNSYPFTFGPGTKVDIK = 1
VY018 (antibody, V domains shown) VH: QVQLQESGPGLVKPSETLSLTCTVSGGSISNYYWSWIRQPAGKGLEWIGRIYTSGDTYYNPSLQSRVTMSVDTSKNQFSLKLSAVTAADTAVYYCARAGIVGTPGLGMDVWGQGTTVTVSS VL: SYELTQPPSVSVSPGQTARITCSGEALPKQYAYWYQQKPGQAPVLVIYKDSERPSGIPERFSGSSSGTTVTLTISGVQAEDEADYYCQSADSSGTYRVFGGGTKLTVL = 3
VY003 (antibody, V domains shown) VH: EVQMVESGGGLVQPGGSLTLSCAASGFTFSSYRMNWVRQAPGKGLEWVSYISSSRSAIYYADSVKGRFTISRDNAKNSLYLQMNSLRDEDTAVYYCATLGIGYWGQGTLVTVSS VL: DIVMTQTPLSSPVTLGQPASISCRSSQSLVHSDGNTYLSWLQQRPGQPPRLLIYKISNRFSGVPDRFSGSGAGTDFTLKITRVEAEDVGIYYCMQVTQFPRTFGQGTKVEIR = 4.6
VY009 (antibody, V domains shown) VH: QITLKESGPTLVKPTQTLTLTCTLSGFSLSTSEVGVGWIRQPPGKALEWLAIIYWNDHKRYSPSLKNRLTFTKDTSKNQVVLTMTNMDPVDTATYYCARRVTGEGFDPWGQGTLVTVSS VL: SYELTQPPSVSVSPGQTARITCSGDALPKQYAYWYQQKPGQAPVLVIFKDTERPSGIPERFSGSSSGTTVTLTISGVQAEDEADYYCQSADSSGSYVFGTGTKVTVL = 1.1
VY020 (antibody, V domains shown) VH: EVQLVESGGGLVQPGGSLRLSCAASGFTFSSYSMNWVRQAPGKGLEWISYISSSNSTIKYADSVKGRFTISRDNAKNSLYLQMNSLRDEDTAVYYCARRSLGDYWGQGTLVIVSS VL: EIVLTQSPATLSLSPGERATLSCRASQSVSSYLAWYLQKPGQAPRLLIYDVSNRATGIPARFSGSGSGTDFTLTISRLEPEDFAVYYCQQRRNWPYTFGQGTKLEIK = 2.6
VY012 (antibody, V domains shown) VH: EVQLLESGGGLVQPGGSLRLSCAASGFTYSSYAMSWVRRAPGKGLEWISIISGSSSITYYADSMKGRFTISRDNSKNTLFLQMNSLRAEDTAVYYCAKGGRYGYFQHWGQGTLVTVSS VL: SYVLTQPPSVSVAPGQTARITCGGNNIGSKSVHWYQQKPGQAPVLVVYDDSDRPSGIPERFSGSNSGNTATLTISRVEAGDEADYYCQVWDSSSDPVVFGGGTMLTVL = 5.1

Next binder, Kd to be filled in.
Problem: # input binder: VY004 (antibody, V domains shown) VH: EVQLVESGGGLVQAGGSLRLSCAASGFTFSDYSMNWVRQAPGKGLEWVSYIRSSSSIIYYADSVKGRFTISRDNAKNSLHLQMNSLRDEDTAVYYCARRGHFDYWGQGTLVTVSS VL: EIVLTQSPATLSLSPGERATLSCRASQSVSDYLAWYQQKPGQAPRLFIYDVSKRATGIPARFSGSGSGTDFTLTISSLEPEDFAVYYCQQRSNWPLTFGGGTKVEIK ; wanted: its Kd
Solution: 3.7
